system tested: Human 5-HT Transporter (Homo sapiens)
Sequence (P31645 whole entry): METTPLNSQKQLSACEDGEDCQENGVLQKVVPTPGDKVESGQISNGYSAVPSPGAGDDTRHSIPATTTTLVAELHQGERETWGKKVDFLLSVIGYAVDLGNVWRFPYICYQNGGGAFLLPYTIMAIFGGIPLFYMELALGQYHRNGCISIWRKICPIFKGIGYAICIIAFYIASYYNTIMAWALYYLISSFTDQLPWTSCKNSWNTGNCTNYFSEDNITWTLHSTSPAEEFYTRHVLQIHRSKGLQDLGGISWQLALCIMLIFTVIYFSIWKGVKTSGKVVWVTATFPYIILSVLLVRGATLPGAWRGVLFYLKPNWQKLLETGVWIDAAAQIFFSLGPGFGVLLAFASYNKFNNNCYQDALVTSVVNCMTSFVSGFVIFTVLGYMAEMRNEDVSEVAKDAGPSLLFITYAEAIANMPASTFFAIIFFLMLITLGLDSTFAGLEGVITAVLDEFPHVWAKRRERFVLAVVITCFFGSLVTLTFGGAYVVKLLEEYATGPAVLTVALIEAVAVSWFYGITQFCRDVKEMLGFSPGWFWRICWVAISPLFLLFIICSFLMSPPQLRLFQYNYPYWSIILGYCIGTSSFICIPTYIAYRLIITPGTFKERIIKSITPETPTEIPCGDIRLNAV
protocol: Inhibition of 3H-5-HT Uptake by Cells Possessing the Human 5-HT Transporter (HC 5HT Transporter), Jar cells
settings: HC-5HTC Transporter Ki (nM), Jar cells treated with staurosporine
So basically, if Ki comes in under 300 nM it's true, and if it's 300 nM or more it's false.

Bench note: check whether COc1cc(N2CCN([C@H]3CC[C@H](c4csc5ccccc54)CC3)CC2)c2ncccc2c1 shows Ki below 300 nM
false

Lab note: Ki threshold 300 nM. Does this compound come in strictly under it? COc1cccc2c1occ2[C@H]1CC[C@H](N2CCN(c3ccc(F)c4cccnc34)CC2)CC1
true

Decide: Ki of COc1cccc2c1occ2[C@H]1CC[C@@H](N2CCN(c3ccc(Cl)c4cccnc34)CC2)CC1 strictly below 300 nM?
true

Lab log: compare recorded Ki with 300 nM; is it strictly lower for Cc1cc(N2CCN(CC(C)c3coc4ccccc34)CC2)c2ncccc2c1 (centres unmarked) ?
false

Say whether its Ki is strictly beneath 300 nM. Entry: COc1cccc2c1occ2[C@H]1CC[C@@H](N2CCN(c3cc(F)cc4cccnc34)CC2)CC1
false
